- studyTarget: CaBbc1
- assayMethodText: SPOT peptide array binding signal intensity (averaged, normalized) (arbitrary units (background-subtracted, floor 0; scale differs between SH3 domains)); higher = stronger binding of the SH3 domain to the peptide
reportedProperty: SPOT peptide array binding signal intensity
Respond numerically, and do not add a unit to the figure.

These recorded examples may help you get a feel for the data.
binder | recordedNumber
QLLNPNRRAPRRPLS | 1450
NAGIRPKFILALNDE | 1.5
RPVPPPPPMRTTTEG | 553
PLRRTVMSLPGNHDI | 154
QQNRPLPQLPNRNNR | 1000

Note down SPOT peptide array binding signal intensity recorded for `WRPRIVPILPYITRL`
58.8

Note down SPOT peptide array binding signal intensity recorded for `KIRRSSLMIPNPQQF`
214
